B1: APBB1IP (parent)
chain: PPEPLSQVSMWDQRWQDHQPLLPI

- Variants of: B1
- method-description: protein stability index of a GFP-peptide fusion (GPS, HEK-293T) (PSI 1-6); higher = more stable;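 note: lentivirally expressed fusions sorted by FACS into six bins by GFP to DsRed ratio, PSI derived from sequencing read proportions per bin multiplied by bin number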
- particulars: c terminus: a fixed tail appended
A collection of variants and their measured protein stability index

# variant, protein stability index
data = [
    ("M10N", 3.54),
    ("L21T", 3.93),
    ("W15G", 3.62),
    ("S9F", 2.95),
    ("Q13G", 2.63),
    ("Q13Y", 2.51),
    ("W15R", 3.41),
]
